Data origin, for the record: ChEMBL document CHEMBL4765369

# tested-system: Protein cereblon/Mitogen-activated protein kinase 14 (Homo sapiens, UniProt Q16539+Q96SW2)
# Sequence (Q16539 2-360 limits assumed): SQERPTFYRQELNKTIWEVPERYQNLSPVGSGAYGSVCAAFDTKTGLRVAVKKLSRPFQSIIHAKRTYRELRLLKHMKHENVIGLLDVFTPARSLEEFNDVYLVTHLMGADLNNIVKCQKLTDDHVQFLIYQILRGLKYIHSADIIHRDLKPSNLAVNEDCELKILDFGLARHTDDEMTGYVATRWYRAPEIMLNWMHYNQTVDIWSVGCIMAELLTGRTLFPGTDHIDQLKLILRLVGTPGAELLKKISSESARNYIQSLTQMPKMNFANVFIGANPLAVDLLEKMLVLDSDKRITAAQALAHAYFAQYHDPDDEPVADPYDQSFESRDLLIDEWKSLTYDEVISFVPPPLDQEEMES
# Sequence (Q96SW2 whole entry partner): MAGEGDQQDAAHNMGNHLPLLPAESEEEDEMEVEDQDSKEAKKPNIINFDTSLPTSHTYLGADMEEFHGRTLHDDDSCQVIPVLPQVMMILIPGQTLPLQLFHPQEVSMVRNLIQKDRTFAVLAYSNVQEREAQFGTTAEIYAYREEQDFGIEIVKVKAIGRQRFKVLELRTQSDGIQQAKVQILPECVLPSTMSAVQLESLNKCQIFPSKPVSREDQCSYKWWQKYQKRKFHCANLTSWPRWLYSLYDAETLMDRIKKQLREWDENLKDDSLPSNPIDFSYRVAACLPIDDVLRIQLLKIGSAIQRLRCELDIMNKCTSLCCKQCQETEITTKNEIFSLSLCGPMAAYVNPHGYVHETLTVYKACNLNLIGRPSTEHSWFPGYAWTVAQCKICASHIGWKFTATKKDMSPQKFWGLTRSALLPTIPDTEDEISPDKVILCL
# experiment-description: Protac activity at CRBN/p38alpha in human BBL358 cells assessed as p38alpha degradation at 10 uM measured after 24 hrs by immunoblotting analysis
# Assay type: cell-based
endpoint-label: Activity (%)

Below: 6 molecules and their reported Activity.
molecule	Activity / %
Cc1ccc(C(=O)NCCCCc2cn(CCOCCOCCOCCNc3cccc4c3C(=O)N(C3CCC(=O)NC3=O)C4=O)nn2)cc1-n1c(C)cc(OCc2ccc(F)cc2F)c(Br)c1=O (stereo not given)	78
C=C1c2cccc(NCCCCCNC(=O)CCCn3cc(CCCCNC(=O)c4ccc(C)c(-n5c(C)cc(OCc6ccc(F)cc6F)c(Br)c5=O)c4)nn3)c2C(=O)N1C1CCC(=O)NC1=O (stereo not given)	47
Cc1ccc(C(=O)NCCCCNC(=O)c2ccc3c(c2)C(=O)N(C2CCC(=O)NC2=O)C3=O)cc1-n1c(C)cc(OCc2ccc(F)cc2F)c(Br)c1=O (stereo not given)	40
Cc1ccc(C(=O)NCCCCc2cn(CCCC(=O)NCCCCCNc3cccc4c3C(=O)N(C3CCC(=O)NC3=O)C4=O)nn2)cc1-n1c(C)cc(OCc2ccc(F)cc2F)c(Br)c1=O (stereo not given)	77
Cc1ccc(C(=O)NCCCCNc2cccc3c2C(=O)N(C2CCC(=O)NC2=O)C3=O)cc1-n1c(C)cc(OCc2ccc(F)cc2F)c(Br)c1=O (stereo not given)	8
Cc1ccc(C(=O)NCCOCCOCCNc2cccc3c2C(=O)N(C2CCC(=O)NC2=O)C3=O)cc1-n1c(C)cc(OCc2ccc(F)cc2F)c(Br)c1=O (stereo not given)	60

(A) Cc1ccc(C(=O)NCCCCc2cn(CC[C@H](NC(=O)OC(C)(C)C)C(=O)NCCCCNc3cccc4c3C(=O)N(C3CCC(=O)NC3=O)C4=O)nn2)cc1-n1c(C)cc(OCc2ccc(F)cc2F)c(Br)c1=O (stereo not given in full)
(B) Cc1ccc(C(=O)NCCCCc2cn(CCCC(=O)NCCOCCOCCNc3cccc4c3C(=O)N(C3CCC(=O)N(Cc5ccccc5[N+](=O)[O-])C3=O)C4=O)nn2)cc1-n1c(C)cc(OCc2ccc(F)cc2F)c(Br)c1=O (stereo not given)
(C) Cc1ccc(C(=O)NCCOCCOCCNC(=O)c2ccc3c(c2)C(=O)N(C2CCC(=O)NC2=O)C3=O)cc1-n1c(C)cc(OCc2ccc(F)cc2F)c(Br)c1=O (stereo not given)
(D) Cc1ccc(C(=O)NCCCCc2cn(CCCC(=O)NCCOCCOCCNC(=O)c3ccc4c(c3)C(=O)N(C3CCC(=O)N(Cc5ccccc5[N+](=O)[O-])C3=O)C4=O)nn2)cc1-n1c(C)cc(OCc2ccc(F)cc2F)c(Br)c1=O (stereo not given)
**Q:** Hey, quick one: sort these by Activity, low to high? Output spec: a listing of the labels in the requested order.
**A:** D, B, C, A
